Molecular target: T1, Monomeric human CD48-mmH (human)
T1 chain: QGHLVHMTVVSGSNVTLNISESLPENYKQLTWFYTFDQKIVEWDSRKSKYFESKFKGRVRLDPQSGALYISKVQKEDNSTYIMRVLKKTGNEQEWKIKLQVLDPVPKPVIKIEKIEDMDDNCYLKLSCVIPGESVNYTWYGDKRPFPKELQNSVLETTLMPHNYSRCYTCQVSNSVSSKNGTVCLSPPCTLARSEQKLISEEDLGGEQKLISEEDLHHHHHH
Assay: SPR (Biacore), antibody captured by anti-Fc, CD48 in solution, 37 C
measured_quantity: T½ (min)
# value in min; strip the unit string

Here are 2 binders together with their reported answers.
H2M1710N (antibody, mouse IgG2, V domains shown, Human variable domains, mouse IgG2 Fc (H2M)) VH: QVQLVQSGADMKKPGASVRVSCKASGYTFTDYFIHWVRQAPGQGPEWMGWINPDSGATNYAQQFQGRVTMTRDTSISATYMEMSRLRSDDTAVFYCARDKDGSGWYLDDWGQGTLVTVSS VL: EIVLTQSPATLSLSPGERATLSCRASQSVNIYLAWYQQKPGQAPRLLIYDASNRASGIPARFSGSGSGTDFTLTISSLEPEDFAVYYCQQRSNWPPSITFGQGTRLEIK    2
H2M1709N (antibody, mouse IgG2, V domains shown, Human variable domains, mouse IgG2 Fc (H2M)) VH: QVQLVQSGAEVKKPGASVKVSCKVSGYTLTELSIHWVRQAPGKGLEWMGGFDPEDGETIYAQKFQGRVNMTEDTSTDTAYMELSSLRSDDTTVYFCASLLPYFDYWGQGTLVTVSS VL: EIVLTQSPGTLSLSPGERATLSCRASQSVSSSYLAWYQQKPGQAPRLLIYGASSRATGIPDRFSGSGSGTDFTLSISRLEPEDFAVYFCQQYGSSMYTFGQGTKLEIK    0

Could you now look at the following binder, please?
Return T½ for the following binder: H4H1781P (antibody, human IgG4, V domains shown, Human IgG4 Fc (H4H)) VH: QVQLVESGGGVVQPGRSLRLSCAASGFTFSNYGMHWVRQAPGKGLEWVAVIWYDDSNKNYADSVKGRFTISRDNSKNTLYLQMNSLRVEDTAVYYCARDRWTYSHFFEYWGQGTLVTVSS VL: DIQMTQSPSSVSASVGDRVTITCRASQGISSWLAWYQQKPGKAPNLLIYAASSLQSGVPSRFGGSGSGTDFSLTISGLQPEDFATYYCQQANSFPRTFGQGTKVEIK
114
